# System: Plasmodium falciparum
# protocolSummary: Antiplasmodial activity against drug-sensitive blood stage Plasmodium falciparum 3D7 by SYBR green 1 staining based fluorescence assay
# Format: functional, organism-based
testReadout: IC50 (µM)

# molecularString, testReadout, censorSymbol, recordedValue
data = [
    ("O=C(NCCCNCCCCNCCCNC(=O)c1cc(Br)c(Br)[nH]1)c1cc(Br)c(Br)[nH]1", "IC50", "=", 2),
    ("O=C(NCCCCNCCCNC(=O)c1ccc(F)[nH]1)c1ccc(F)[nH]1", "IC50", ">", 10),
    ("O=C(NCCCCNCCCNC(=O)c1cc(Br)c(Br)[nH]1)c1cc(Br)c(Br)[nH]1", "IC50", "=", 1),
    ("O=C(NCCCCNCCCNC(=O)c1cc2ccccc2[nH]1)c1cc2ccccc2[nH]1", "IC50", ">", 10),
    ("O=C(NCCCCNCCCNC(=O)c1ccc[nH]1)c1ccc[nH]1", "IC50", ">", 10),
]

* * *

# Tested on: Plasmodium falciparum
# protocolSummary: Antiplasmodial activity against drug-sensitive blood stage Plasmodium falciparum 3D7 by SYBR green 1 staining based fluorescence assay
# Format: functional, organism-based
pIC50: −log10 of the molar value.
Parameter pIC50: see the listing below.
testReadout: pIC50

# molecularString, testReadout, recordedValue
measured = [
    ("CC1(C)N=C(N)N=C(N)N1c1ccc(Cl)cc1", "pIC50", 8.00),
    ("Cc1ccc(C(=O)NCCCCNCCCNC(=O)c2ccc(C)s2)s1", "pIC50", "< 5.00"),
    ("[N-]=[N+]=NCC(=O)N(CCCCNC(=O)c1cc(Br)c(Br)[nH]1)CCCNC(=O)c1cc(Br)c(Br)[nH]1", "pIC50", "< 5.00"),
    ("O=C(NCCCCNCCCNC(=O)c1cccc(Cl)n1)c1cccc(Cl)n1", "pIC50", "< 5.00"),
    ("O=C(NCCCCNCCCNC(=O)c1ccc(Br)s1)c1ccc(Br)s1", "pIC50", "< 5.00"),
    ("O=C(NCCCCCCCCNC(=O)c1cc(Br)c(Br)[nH]1)c1cc(Br)c(Br)[nH]1", "pIC50", "< 5.00"),
    ("CN(CCCCNC(=O)c1cc(Br)c(Br)[nH]1)CCCNC(=O)c1cc(Br)c(Br)[nH]1", "pIC50", 5.40),
    ("O=C(NCCCCNCCCNC(=O)c1cc(Br)c[nH]1)c1cc(Br)c[nH]1", "pIC50", 5.15),
    ("O=C(NCCCCNCCCNC(=O)c1cc(Cl)c(Cl)[nH]1)c1cc(Cl)c(Cl)[nH]1", "pIC50", "< 5.00"),
    ("CC(=O)N(CCCCNC(=O)c1cc(Br)c(Br)[nH]1)CCCNC(=O)c1cc(Br)c(Br)[nH]1", "pIC50", "< 5.00"),
    ("O=C(NCCSCCNC(=O)c1cc(Br)c(Br)[nH]1)c1cc(Br)c(Br)[nH]1", "pIC50", "< 5.00"),
    ("O=C(NCCCCCNC(=O)c1ccc[nH]1)c1ccc[nH]1", "pIC50", "< 5.00"),
    ("Cc1cccc(C(=O)NCCCCNCCCNC(=O)c2cccc(C)n2)n1", "pIC50", "< 5.00"),
    ("O=C(NCCCCCNC(=O)c1cc(Br)c(Br)[nH]1)c1cc(Br)c(Br)[nH]1", "pIC50", "< 5.00"),
    ("O=C(NCCCCCCNCCCCCCNC(=O)c1cc(Br)c(Br)[nH]1)c1cc(Br)c(Br)[nH]1", "pIC50", 5.70),
    ("O=C(NCCCCNCCCNC(=O)c1cc(Br)c(Br)o1)c1cc(Br)c(Br)o1", "pIC50", 5.52),
    ("Cc1ccc(C(=O)NCCCCNCCCNC(=O)c2ccc(C)o2)o1", "pIC50", "< 5.00"),
    ("O=C(NCCCCNCCCNC(=O)c1nc2ccccc2[nH]1)c1nc2ccccc2[nH]1", "pIC50", "< 5.00"),
]
